The values you see were collected from PubChem BioAssay (NCI).

test system: MDA-MB-231 breast; experiment: NCI-60 one-dose screen, 48 h (100 = growth as untreated, 0 = no growth, -100 = all killed); details: 10 µM unless noted
This is part of a sample that, as a whole, favours compounds with a hit. Of some 83,000 tested, about 20% had one in any assay.
// growth lookup, one value per entry
Write down the numeric answer in % and omit the unit.

{"Molecule": "CO[C@H](C(=O)O)[C@@H]1Cc2cc3cc(OC4CC(OC5CC(O)C(O)C(C)O5)C(O)C(C)O4)c(C)c(O)c3c(O)c2C(=O)[C@H]1OC1CC(OC2CC(OC3CC(C)(O)C(O)C(C)O3)C(O)C(C)O2)C(O)C(C)O1 (stereo partly drawn)", "growth [%]": 19.9}

Dear colleague, I am looking for the recorded growth of the following molecule: Oc1c(CCl)cc(Cl)cc1CCl
104

Dear colleague, I am looking for the recorded growth of the following molecule: COC(=O)[C@@]1(C)CC[C@]2(C)CC[C@]3(C)C4=CC(=O)c5c(cc(O)c(O)c5C)[C@]4(C)CC[C@@]3(C)[C@@H]2C1
61.4

Dear colleague, I am looking for the recorded growth of the following molecule: CO[C@H]1CC[C@@]2(C)C(=CC[C@@H]3[C@@H]2CC[C@]2(C)C(=O)C(=O)C[C@@H]32)C1
103

Dear colleague, I am looking for the recorded growth of the following molecule: COP(=S)(N1CC1)N1CC1
93

----------
test system: KM12 colon; experiment: NCI-60 one-dose screen, 48 h (100 = growth as untreated, 0 = no growth, -100 = all killed); settings: 10 µM unless noted
The panel holds about 83,000 compounds, 20% with a hit somewhere; the sample as a whole holds those more often. Activity calls are given as the source filed them. How the source made its calls: active means growth percent below 10; inactive means the rest.
// growth lookup, one value per entry

// below: answered compounds
{"Compound": "Cc1c(O)c(CN(CCCl)CCCl)cc(CN(CCCl)CCCl)c1O", "growth": "103% (inactive)"}
{"Compound": "Cc1c(C)c([N+](=O)[O-])c(C)c(C)c1[N+](=O)[O-]", "growth": "110% (inactive)"}
{"Compound": "O=[N+]([O-])CC(O)C(Cl)(Cl)Cl (stereo not drawn)", "growth": "107% (inactive)"}
{"Compound": "CC[C@H](C)[C@H](NC(=O)C12CC(NC(C)=O)(C1)C2)C(=O)N(C)[C@H](C[C@@H](OC(C)=O)c1nc(C(=O)N[C@@H](Cc2ccccc2)C[C@H](C)C(=O)OC)cs1)C(C)C", "growth": "12.5% (inactive)"}
{"Compound": "O=C1C2C(C(=O)[N]1[Hg][c]1ccccc1)C1(Cl)C(Cl)=C(Cl)C2(Cl)C1(Cl)Cl (stereo not drawn)", "growth": "74.6% (inactive)"}
{"Compound": "O=Cc1cn(Cc2ccc(Cl)cc2)c2ccccc12", "growth": "109% (inactive)"}

Dear colleague, I am looking for the recorded growth of the following compound: Cn1cc(-c2csc(-c3cn(CCCCN4CCCCC4)c4ccc(F)cc34)n2)c2cccnc21
82.5% (inactive)

Dear colleague, I am looking for the recorded growth of the following compound: CCOC(=O)[C@@H](C)C[C@H](Cc1ccccc1)NC(=O)c1csc([C@@H](C[C@H](C(C)C)N(C)C(=O)[C@H](CC)NC(=O)[C@H]2CCCCN2C)OC(C)=O)n1
4.85% (active)
